# Tested on: Phoma lingam
# procedureText: Antimicrobial activity (mycelium growth inhibition, PDA medium)
# Format: cell-based
# measurementSetup: Plenodomus lingam, 24° C., read-out: ED50 value
The label is Met for IC50 below 3 µg/mL and Not met for IC50 equal to or exceeding 3 µg/mL.

Request: Hello, is IC50 of the following compound strictly smaller than 3 µg/mL? Cc1ccc(Oc2cc(C)nc(-n3nc(C)cc3C)n2)c(C)c1
Result: Not met

Request: Hello, is IC50 of the following compound strictly smaller than 3 µg/mL? Cc1cc(C)n(-c2nc(C)c(C)c(Oc3ccccc3)n2)n1
Result: Met

Now for a further compound.
Request: Input CCOc1nc(-n2nc(C)cc2C)ncc1C ; condition: IC50 strictly below 3 µg/mL. Does it hold?
Result: Not met
